- assay-system: panel of more than 300 wild-type and mutant kinases (313 kinase panel) (Homo sapiens)
- Sequence (P06213 28-1382, change not shown): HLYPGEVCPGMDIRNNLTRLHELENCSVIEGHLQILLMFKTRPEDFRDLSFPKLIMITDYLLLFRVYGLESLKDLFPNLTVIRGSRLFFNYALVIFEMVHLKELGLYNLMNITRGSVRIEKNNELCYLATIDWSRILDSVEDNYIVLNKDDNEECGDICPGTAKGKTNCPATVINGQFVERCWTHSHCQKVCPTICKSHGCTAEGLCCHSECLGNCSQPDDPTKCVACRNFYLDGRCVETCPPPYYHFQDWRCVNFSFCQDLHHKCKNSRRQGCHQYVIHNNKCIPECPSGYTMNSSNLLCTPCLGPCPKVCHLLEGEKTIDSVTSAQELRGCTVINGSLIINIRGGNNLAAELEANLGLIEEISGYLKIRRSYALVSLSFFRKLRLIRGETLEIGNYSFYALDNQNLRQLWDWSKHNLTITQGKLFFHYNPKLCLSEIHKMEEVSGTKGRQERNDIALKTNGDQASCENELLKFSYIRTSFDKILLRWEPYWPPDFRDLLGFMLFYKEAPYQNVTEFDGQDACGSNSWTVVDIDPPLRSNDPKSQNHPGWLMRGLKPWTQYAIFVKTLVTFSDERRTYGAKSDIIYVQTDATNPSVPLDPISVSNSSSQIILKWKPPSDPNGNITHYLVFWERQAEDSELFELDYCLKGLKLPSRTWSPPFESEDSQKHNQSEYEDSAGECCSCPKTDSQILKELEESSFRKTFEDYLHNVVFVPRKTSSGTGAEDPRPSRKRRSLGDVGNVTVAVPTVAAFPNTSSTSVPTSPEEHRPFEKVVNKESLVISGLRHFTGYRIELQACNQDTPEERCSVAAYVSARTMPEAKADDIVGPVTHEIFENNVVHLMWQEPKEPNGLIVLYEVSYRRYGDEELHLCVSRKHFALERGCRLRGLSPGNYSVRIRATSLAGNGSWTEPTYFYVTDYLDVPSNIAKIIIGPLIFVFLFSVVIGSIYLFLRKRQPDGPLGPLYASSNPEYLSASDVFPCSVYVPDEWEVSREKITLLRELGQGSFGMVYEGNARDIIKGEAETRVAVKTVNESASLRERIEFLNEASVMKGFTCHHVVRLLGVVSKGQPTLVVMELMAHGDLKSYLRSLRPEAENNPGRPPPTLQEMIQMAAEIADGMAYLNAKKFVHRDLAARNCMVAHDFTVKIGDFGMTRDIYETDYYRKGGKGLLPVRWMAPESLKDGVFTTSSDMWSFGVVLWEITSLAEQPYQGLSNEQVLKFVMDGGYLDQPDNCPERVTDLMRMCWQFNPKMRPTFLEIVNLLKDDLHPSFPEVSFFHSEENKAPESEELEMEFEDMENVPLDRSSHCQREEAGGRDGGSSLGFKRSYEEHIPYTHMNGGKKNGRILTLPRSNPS
- run-description: Kinase profiling in a biochemical assay panel (mobility shift assays and ELISA), %-inhibition at 1 μM; selectivity entropy
- reported-conditions: kinase INSR; compound at 1 μM
observable: %-inhibition of INSR (%)
Numbers only, in %.

compound	%-inhibition of INSR (%)
COc1cc(Nc2c(C#N)cnc3cc(OCCCN4CCN(C)CC4)c(OC)cc23)c(Cl)cc1Cl	65
CC(=O)Nc1cccc(-n2c(=O)n(C3CC3)c(=O)c3c(Nc4ccc(I)cc4F)n(C)c(=O)c(C)c32)c1	-30

Batch request: %-inhibition of INSR for each of the following compounds.
1. CNC(=O)c1cc(Oc2ccc(NC(=O)Nc3ccc(Cl)c(C(F)(F)F)c3)c(F)c2)ccn1
2. CS(=O)(=O)CCNCc1ccc(-c2ccc3ncnc(Nc4ccc(OCc5cccc(F)c5)c(Cl)c4)c3c2)o1
3. CO[C@H]1C[C@@H]2CC[C@@H](C)[C@@](O)(O2)C(=O)C(=O)N2CCCC[C@H]2C(=O)O[C@H]([C@H](C)C[C@@H]2CC[C@@H](OC(=O)C(C)(CO)CO)[C@H](OC)C2)CC(=O)[C@H](C)/C=C(\C)[C@@H](O)[C@@H](OC)C(=O)[C@H](C)C[C@H](C)/C=C/C=C/C=C/1C
4. COc1cc2c(Nc3ccc(Br)cc3F)ncnc2cc1OCC1CCN(C)CC1
5. CC(C)(C)c1nc(-c2cccc(NS(=O)(=O)c3c(F)cccc3F)c2F)c(-c2ccnc(N)n2)s1
6. N#CC[C@H](C1CCCC1)n1cc(-c2ncnc3[nH]ccc23)cn1
7. O=S(=O)(c1cccc2cnccc12)N1CCCNCC1

[-2.79, -1.26, -4, 3.63, 7.51, 0.837, -11]

Batch request: %-inhibition of INSR for each of the following compounds.
1. CO[C@H]1C[C@@H]2CC[C@@H](C)[C@@](O)(O2)C(=O)C(=O)N2CCCC[C@H]2C(=O)O[C@H]([C@H](C)C[C@@H]2CC[C@@H](OCCO)[C@H](OC)C2)CC(=O)[C@H](C)/C=C(\C)[C@@H](O)[C@@H](OC)C(=O)[C@H](C)C[C@H](C)/C=C/C=C/C=C/1C
2. Cc1ccc(C(=O)Nc2ccc(CN3CCN(C)CC3)c(C(F)(F)F)c2)cc1C#Cc1cnc2cccnn12

1: -3.77; 2: 43

Batch request: %-inhibition of INSR for each of the following compounds.
1. COc1cc2nccc(Oc3ccc(NC(=O)C4(C(=O)Nc5ccc(F)cc5)CC4)cc3)c2cc1OC [cabozantinib]
2. Cc1ccc(Nc2nccc(N(C)c3ccc4c(C)n(C)nc4c3)n2)cc1S(N)(=O)=O
3. CCCS(=O)(=O)Nc1ccc(F)c(C(=O)c2c[nH]c3ncc(-c4ccc(Cl)cc4)cc23)c1F
4. Cc1cn(-c2cc(NC(=O)c3ccc(C)c(Nc4nccc(-c5cccnc5)n4)c3)cc(C(F)(F)F)c2)cn1

1: 35; 2: 22; 3: 17; 4: -8
